Species: Rattus norvegicus
Test: Open TG-GATES - Regimen: Daily Repeat
Type: toxicity, organism-based, Sprague-Dawley
Design: regimen Daily Repeat, gender Male, age 6 weeks
Conditions: in vivo, po, 0 mg/kg, 72 h, tissue Plasma, route gavage, dose level Control, time 3 day
assay-readout: RALB (g/dL)

CN(C)CCC(c1ccc(Cl)cc1)c1ccccn1 (stereo not drawn) | 2.7
O=C(OC[C@H]1O[C@@H](OC(=O)c2cc(O)c(O)c(OC(=O)c3cc(O)c(O)c(O)c3)c2)[C@H](OC(=O)c2cc(O)c(O)c(OC(=O)c3cc(O)c(O)c(O)c3)c2)[C@@H](OC(=O)c2cc(O)c(O)c(OC(=O)c3cc(O)c(O)c(O)c3)c2)[C@@H]1OC(=O)c1cc(O)c(O)c(OC(=O)c2cc(O)c(O)c(O)c2)c1)c1cc(O)c(O)c(OC(=O)c2cc(O)c(O)c(O)c2)c1 | 3.8
CN/C(=N/CCSCc1nc[nH]c1C)NC#N | 3.5
CC(C)NNC(=O)c1ccncc1 | 3.1
Cc1nnc2n1-c1ccc(Cl)cc1C(c1ccccc1Cl)=NC2 | 2.6
Nc1c2c(nc3ccccc13)CCCC2 | 3.1
CN1C(=O)CCS(=O)(=O)C1c1ccc(Cl)cc1 (stereo not drawn) | 2.7
CNC(=C[N+](=O)[O-])NCCSCc1ccc(CN(C)C)o1 | 3.5
CCCc1cc(=O)[nH]c(=S)[nH]1 | 3.9
CCOc1ccc(NC(C)=O)cc1 | 2.6
Brc1ccccc1 | 2.6
COC(=O)C1=C(C)NC(C)=C(C(=O)OC)C1c1ccccc1[N+](=O)[O-] | 2.7
NC1=NC(=O)C(c2ccccc2)O1 (stereo not drawn) | 2.6

---

Species on record: Rattus norvegicus
Experiment: Open TG-GATES - Regimen: Daily Repeat
Assay type: toxicity, organism-based, Sprague-Dawley
Set-up: regimen Daily Repeat, gender Male, age 6 weeks
Settings: in vivo, po, 100 mg/kg, […], tissue Plasma, route gavage, dose level Low, time 7 day
Readings of TG for the listed compounds
assay-readout: TG (mg/dL)

COC(=O)C1=C(C)NC(C)=C(C(=O)OC)C1c1ccccc1[N+](=O)[O-] | 93.4
CN/C(=N/CCSCc1nc[nH]c1C)NC#N | 121
Cc1nnc2n1-c1ccc(Cl)cc1C(c1ccccc1Cl)=NC2 | 104.8
CCOc1ccc(NC(C)=O)cc1 | 152
CNC(=C[N+](=O)[O-])NCCSCc1ccc(CN(C)C)o1 | 125.4
O=C(OC[C@H]1O[C@@H](OC(=O)c2cc(O)c(O)c(OC(=O)c3cc(O)c(O)c(O)c3)c2)[C@H](OC(=O)c2cc(O)c(O)c(OC(=O)c3cc(O)c(O)c(O)c3)c2)[C@@H](OC(=O)c2cc(O)c(O)c(OC(=O)c3cc(O)c(O)c(O)c3)c2)[C@@H]1OC(=O)c1cc(O)c(O)c(OC(=O)c2cc(O)c(O)c(O)c2)c1)c1cc(O)c(O)c(OC(=O)c2cc(O)c(O)c(O)c2)c1 | 116.2

---

Species: Rattus norvegicus
Experiment: Open TG-GATES - Regimen: Daily Repeat
Format: toxicity, organism-based, Sprague-Dawley
Set-up: regimen Daily Repeat, gender Male, age 6 weeks
Conditions: in vivo, po, 0 mg/kg, […], tissue Plasma, route gavage, dose level Control, time 28 day
TC vs 70 mg/dL: less than gives met; not less than gives not met.

Brc1ccccc1 | not met
CN/C(=N/CCSCc1nc[nH]c1C)NC#N | met
CN1C(=O)CCS(=O)(=O)C1c1ccc(Cl)cc1 (configuration not stated) | not met
O=C(OC[C@H]1O[C@@H](OC(=O)c2cc(O)c(O)c(OC(=O)c3cc(O)c(O)c(O)c3)c2)[C@H](OC(=O)c2cc(O)c(O)c(OC(=O)c3cc(O)c(O)c(O)c3)c2)[C@@H](OC(=O)c2cc(O)c(O)c(OC(=O)c3cc(O)c(O)c(O)c3)c2)[C@@H]1OC(=O)c1cc(O)c(O)c(OC(=O)c2cc(O)c(O)c(O)c2)c1)c1cc(O)c(O)c(OC(=O)c2cc(O)c(O)c(O)c2)c1 | not met
CN(C)CCC(c1ccc(Cl)cc1)c1ccccn1 (configuration not stated) | not met
CNC(=C[N+](=O)[O-])NCCSCc1ccc(CN(C)C)o1 | met
Nc1c2c(nc3ccccc13)CCCC2 | not met
